molecules and their reported MIC
Tested on: Candida albicans
ASSAY INFO: Antifungal activity against Candida albicans assessed as total growth inhibition by micro-broth dilution method
Assay type: functional

For orientation, consider the following solved cases.
{"columns": ["MOLECULE", "MIC"],
 "data": [
  ["Clc1cccc(OCCO/N=C2\\c3ccccc3OCC2n2ccnc2)c1.O=[N+]([O-])O (racemic)", "> 64 µg/mL"],
  ["Fc1cccc(OCCO/N=C2\\c3ccccc3OCC2n2ccnc2)c1.O=[N+]([O-])O (racemic)", "> 64 µg/mL"],
  ["O=[N+]([O-])O.c1ccc(OCCO/N=C2\\c3ccccc3OCC2n2ccnc2)cc1 (racemic)", "> 64 µg/mL"]
]}

The molecule listed as Fc1ccc(OCCO/N=C2\c3ccccc3OCC2n2ccnc2)cc1.O=[N+]([O-])O (racemic) has a reported MIC of > 64 µg/mL

Reported MIC for OC(Cn1cncn1)(Cn1cncn1)c1ccc(F)cc1F was 2 µg/mL

###

Tested on: Candida albicans
ASSAY INFO: Antifungal activity against Candida albicans assessed as total growth inhibition by micro-broth dilution method
Type: functional
Listed here: items and their measured MIC.

{"columns": ["COMPOUND", "QUANTITY NAME", "VALUE MEASURED"],
 "data": [
  ["CCC(C)n1ncn(-c2ccc(N3CCN(c4ccc(OCC5COC(Cn6cncn6)(c6ccc(Cl)cc6Cl)O5)cc4)CC3)cc2)c1=O (centres undefined)", "MIC", "0.25 µg/mL"],
  ["Clc1ccc(OCCO/N=C2\\c3ccccc3OCC2n2ccnc2)c(Cl)c1.O=[N+]([O-])O (racemic)", "MIC", "> 64 µg/mL"],
  ["Clc1ccc(OCCO/N=C2\\c3ccccc3OCC2n2ccnc2)cc1.O=[N+]([O-])O (racemic)", "MIC", "> 64 µg/mL"]
]}

--- query ---
Field MIC (entry O/N=C1\c2ccccc2OCC1n1ccnc1 (centres undefined) ) reads > 64 µg/mL
